Biological target: Muscarinic acetylcholine receptor M1 (Homo sapiens, UniProt P11229)
Sequence (P11229 whole entry): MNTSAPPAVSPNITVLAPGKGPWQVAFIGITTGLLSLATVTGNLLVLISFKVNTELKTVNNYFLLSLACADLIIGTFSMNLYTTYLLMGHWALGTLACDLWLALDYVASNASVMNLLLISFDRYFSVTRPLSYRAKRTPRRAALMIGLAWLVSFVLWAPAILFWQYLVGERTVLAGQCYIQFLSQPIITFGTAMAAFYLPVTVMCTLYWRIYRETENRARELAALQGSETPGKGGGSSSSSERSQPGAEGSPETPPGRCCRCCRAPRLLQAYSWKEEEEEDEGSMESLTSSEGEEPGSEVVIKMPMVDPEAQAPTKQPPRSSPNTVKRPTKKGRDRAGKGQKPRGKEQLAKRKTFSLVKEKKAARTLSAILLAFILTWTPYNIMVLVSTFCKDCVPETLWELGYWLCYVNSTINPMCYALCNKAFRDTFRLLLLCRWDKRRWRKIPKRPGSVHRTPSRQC
pKi: −log10 of the molar value.
Here, each record is paired with measured pKi data.

Reference set, count: 3
1) CC(C)N(CCc1c[nH]c2ccccc12)C(C)C : < 5.00
2) CC[C@H]1C[C@@H]2C[C@H]3c4[nH]c5ccc(OC)cc5c4CCN(C2)[C@@H]13 : 4.65
3) CNC(C)Cc1ccc2c(c1)OCO2 (centres undefined) : < 5.00

Next up:
[in] Please look up its pKi: "CCc1cc(OC)c(CCN)cc1OC"
[out] < 5.00

----------
Biological target: Sigma intracellular receptor 2 (Homo sapiens, UniProt Q5BJF2)
Sequence (Q5BJF2 whole entry): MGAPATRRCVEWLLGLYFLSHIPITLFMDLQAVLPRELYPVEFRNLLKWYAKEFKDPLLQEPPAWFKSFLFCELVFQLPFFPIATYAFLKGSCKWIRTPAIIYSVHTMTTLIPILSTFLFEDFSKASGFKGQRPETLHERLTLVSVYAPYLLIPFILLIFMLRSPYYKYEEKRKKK
Assay: Ray2010 Assay 74
pKi: −log10 of the molar value.
measuredMetric: pKi

1) CCSc1cc(OC)c(CC(C)N)cc1OC (stereo not drawn) : < 5.00
2) CCc1cc(OC)c(CC(C)N)cc1OC (stereo not drawn) : 5.02

[in] Please look up its pKi: "COc1cc(CCN)cc(OC)c1OC"
[out] < 5.00

----------
Molecular target: Sodium-dependent dopamine transporter (Homo sapiens)
Sequence (Q01959 whole entry): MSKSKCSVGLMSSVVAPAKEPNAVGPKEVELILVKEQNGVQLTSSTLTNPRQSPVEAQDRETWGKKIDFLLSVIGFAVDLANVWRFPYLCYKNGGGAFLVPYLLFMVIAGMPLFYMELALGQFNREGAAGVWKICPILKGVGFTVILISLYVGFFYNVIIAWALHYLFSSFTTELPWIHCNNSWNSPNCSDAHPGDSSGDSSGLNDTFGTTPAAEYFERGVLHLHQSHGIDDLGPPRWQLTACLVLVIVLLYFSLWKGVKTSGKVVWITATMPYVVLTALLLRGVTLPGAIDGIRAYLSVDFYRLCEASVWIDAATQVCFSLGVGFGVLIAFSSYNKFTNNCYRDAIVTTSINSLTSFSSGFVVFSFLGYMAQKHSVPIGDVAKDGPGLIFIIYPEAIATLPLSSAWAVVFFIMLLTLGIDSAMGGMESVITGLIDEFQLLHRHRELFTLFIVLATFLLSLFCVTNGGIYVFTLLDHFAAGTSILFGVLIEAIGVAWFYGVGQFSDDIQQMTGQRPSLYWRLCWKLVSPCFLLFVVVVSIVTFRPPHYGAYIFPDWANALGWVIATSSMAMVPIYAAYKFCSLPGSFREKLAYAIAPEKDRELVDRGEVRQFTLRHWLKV
Test: Ray2010 Assay 74
Here, each record is paired with measured Ki data.

[in] Please look up its Ki: "COc1ccc2[nH]cc(CCN(C)C(C)C)c2c1"
[out] > 10 µM

[in] // same read-out, input: "COc1ccc2[nH]cc(CCN(C)C)c2c1"
[out] > 10 µM

[in] // same read-out, input: CCSc1cc(OC)c(CC(C)N)cc1OC (stereo not given)
[out] > 10 µM

[in] // same read-out, input: CCN(CC)C(=O)[C@@H]1C=C2c3cccc4[nH]cc(c34)C[C@H]2N(C)C1 [[N-methyl-3H]LSD]
[out] > 10 µM

[in] // same read-out, input: "CCc1cc(OC)c(CCN)cc1OC"
[out] > 10 µM

----------
Molecular target: D(2) dopamine receptor (Homo sapiens)
Sequence (P14416 whole entry): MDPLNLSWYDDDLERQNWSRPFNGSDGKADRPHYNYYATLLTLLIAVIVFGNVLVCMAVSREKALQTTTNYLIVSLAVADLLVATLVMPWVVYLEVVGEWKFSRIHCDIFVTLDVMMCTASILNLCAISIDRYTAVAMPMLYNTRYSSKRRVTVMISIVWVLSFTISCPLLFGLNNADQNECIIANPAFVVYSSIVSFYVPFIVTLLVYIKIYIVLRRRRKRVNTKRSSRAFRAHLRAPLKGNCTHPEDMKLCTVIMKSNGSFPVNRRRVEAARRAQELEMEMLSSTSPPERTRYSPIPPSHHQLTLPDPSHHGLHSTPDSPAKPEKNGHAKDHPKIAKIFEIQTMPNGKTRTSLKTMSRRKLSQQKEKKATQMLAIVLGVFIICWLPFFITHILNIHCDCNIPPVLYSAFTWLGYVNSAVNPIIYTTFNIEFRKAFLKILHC
Test: Ray2010 Assay 74
Here, each record is paired with measured pKi data.
To interpret pKi, take it as minus log10 of a concentration measured in moles per litre.

Reference set, count: 5
1. C[C@@H]1C[C@@H](C)N1C(=O)C1C=C2c3cccc4[nH]cc(c34)C[C@H]2N(C)C1 (stereo partly drawn) [rr-2b] : 6.58
2. COc1ccc2[nH]cc(CCN(C)C)c2c1 : 5.45
3. NCCc1c2c(c(Br)c3c1OCC3)OCC2 : 5.17
4. CN(C)CCc1c[nH]c2cc(F)ccc12 : 6.21
5. C[C@@H]1C[C@@H](C)N1C(=O)C1C=C2c3cccc4[nH]cc(c34)C[C@H]2N(C)C1 (stereo partly drawn) [ss-2c] : 7.13

[in] Please look up its pKi: "COc1cc(CCN)c(OC)cc1Br"
[out] 5.47

[in] // same read-out, input: "CCc1cc(OC)c(CCN)cc1OC"
[out] 5.48

----------
UniProt:P28566: reported pKi for various compounds.
Sequence (P28566 whole entry): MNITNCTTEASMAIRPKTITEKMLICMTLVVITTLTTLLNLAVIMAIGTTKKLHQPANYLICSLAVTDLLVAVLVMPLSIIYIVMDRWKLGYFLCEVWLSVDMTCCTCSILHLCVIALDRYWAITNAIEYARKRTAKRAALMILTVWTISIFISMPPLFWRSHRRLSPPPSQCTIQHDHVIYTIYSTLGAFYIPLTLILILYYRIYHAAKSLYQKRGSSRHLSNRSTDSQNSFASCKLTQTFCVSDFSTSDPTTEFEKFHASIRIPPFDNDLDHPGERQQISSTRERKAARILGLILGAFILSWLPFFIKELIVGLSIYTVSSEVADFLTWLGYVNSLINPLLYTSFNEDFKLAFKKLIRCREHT
To interpret pKi, take it as minus log10 of a concentration measured in moles per litre.

1) C[C@@H]1C[C@@H](C)N1C(=O)C1C=C2c3cccc4[nH]cc(c34)C[C@H]2N(C)C1 (stereo not given in full) [ss-2c] : 6.56

[in] Please look up its pKi: "CCCN(CCC)CCc1c[nH]c2ccccc12"
[out] 5.63

[in] // same read-out, input: C[C@@H]1C[C@H](C)N1C(=O)C1C=C2c3cccc4[nH]cc(c34)C[C@H]2N(C)C1 (stereo partly drawn) [cis-2a]
[out] 6.71

[in] // same read-out, input: "COc1cc(CCN)cc(OC)c1OC"
[out] 5.28

----------
Target: UniProt Q62645
Assay: Ray2010 Assay 66
measuredMetric: pKi
To interpret pKi, take it as minus log10 of a concentration measured in moles per litre.

[in] Please look up its pKi: "CC[C@H]1C[C@@H]2C[C@H]3c4[nH]c5ccc(OC)cc5c4CCN(C2)[C@@H]13"
[out] 5.61

----------
Target: Muscarinic acetylcholine receptor M1 (Rattus norvegicus)
Sequence (P08482 whole entry): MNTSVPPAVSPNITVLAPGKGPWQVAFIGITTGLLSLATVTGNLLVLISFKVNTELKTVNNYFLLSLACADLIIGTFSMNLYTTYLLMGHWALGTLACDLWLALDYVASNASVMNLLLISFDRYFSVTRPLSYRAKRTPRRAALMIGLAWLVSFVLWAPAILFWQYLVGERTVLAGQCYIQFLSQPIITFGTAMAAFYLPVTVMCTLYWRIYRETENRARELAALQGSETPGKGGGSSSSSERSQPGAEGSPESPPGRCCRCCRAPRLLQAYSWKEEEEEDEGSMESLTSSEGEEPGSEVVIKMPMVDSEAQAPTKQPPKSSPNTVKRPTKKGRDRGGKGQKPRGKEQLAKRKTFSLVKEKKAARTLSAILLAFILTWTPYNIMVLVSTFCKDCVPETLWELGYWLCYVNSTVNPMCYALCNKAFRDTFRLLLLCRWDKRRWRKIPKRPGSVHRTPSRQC
measuredMetric: IC50 (µM)
Output spec: scalar in µM, unitless text.

[in] // map "CC[C@H]1C[C@@H]2C[C@H]3c4[nH]c5ccc(OC)cc5c4CCN(C2)[C@@H]13" to recorded IC50 (system: Muscarinic acetylcholine receptor M1 (Rattus norvegicus))
[out] 7.6

----------
Target: Sigma non-opioid intracellular receptor 1 (UniProt Q58DH7)
Sequence (Q58DH7 whole entry): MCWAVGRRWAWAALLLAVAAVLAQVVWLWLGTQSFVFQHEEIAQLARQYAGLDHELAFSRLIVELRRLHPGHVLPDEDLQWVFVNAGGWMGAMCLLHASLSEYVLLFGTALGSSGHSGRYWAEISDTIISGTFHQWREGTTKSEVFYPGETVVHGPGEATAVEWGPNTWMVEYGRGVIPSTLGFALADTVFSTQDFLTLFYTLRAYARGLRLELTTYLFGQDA
Experiment: Ray2010 Assay 40
Text: (+)-pentazocine caudate .
measuredMetric: pKi
To interpret pKi, take it as minus log10 of a concentration measured in moles per litre.

[in] // map "CC[C@H]1C[C@@H]2C[C@H]3c4[nH]c5ccc(OC)cc5c4CCN(C2)[C@@H]13" to recorded pKi (system: Sigma non-opioid intracellular receptor 1 (UniProt Q58DH7))
[out] 5.60

----------
Nischarin (Homo sapiens): reported Ki for various molecules.
Sequence (Q9Y2I1 whole entry): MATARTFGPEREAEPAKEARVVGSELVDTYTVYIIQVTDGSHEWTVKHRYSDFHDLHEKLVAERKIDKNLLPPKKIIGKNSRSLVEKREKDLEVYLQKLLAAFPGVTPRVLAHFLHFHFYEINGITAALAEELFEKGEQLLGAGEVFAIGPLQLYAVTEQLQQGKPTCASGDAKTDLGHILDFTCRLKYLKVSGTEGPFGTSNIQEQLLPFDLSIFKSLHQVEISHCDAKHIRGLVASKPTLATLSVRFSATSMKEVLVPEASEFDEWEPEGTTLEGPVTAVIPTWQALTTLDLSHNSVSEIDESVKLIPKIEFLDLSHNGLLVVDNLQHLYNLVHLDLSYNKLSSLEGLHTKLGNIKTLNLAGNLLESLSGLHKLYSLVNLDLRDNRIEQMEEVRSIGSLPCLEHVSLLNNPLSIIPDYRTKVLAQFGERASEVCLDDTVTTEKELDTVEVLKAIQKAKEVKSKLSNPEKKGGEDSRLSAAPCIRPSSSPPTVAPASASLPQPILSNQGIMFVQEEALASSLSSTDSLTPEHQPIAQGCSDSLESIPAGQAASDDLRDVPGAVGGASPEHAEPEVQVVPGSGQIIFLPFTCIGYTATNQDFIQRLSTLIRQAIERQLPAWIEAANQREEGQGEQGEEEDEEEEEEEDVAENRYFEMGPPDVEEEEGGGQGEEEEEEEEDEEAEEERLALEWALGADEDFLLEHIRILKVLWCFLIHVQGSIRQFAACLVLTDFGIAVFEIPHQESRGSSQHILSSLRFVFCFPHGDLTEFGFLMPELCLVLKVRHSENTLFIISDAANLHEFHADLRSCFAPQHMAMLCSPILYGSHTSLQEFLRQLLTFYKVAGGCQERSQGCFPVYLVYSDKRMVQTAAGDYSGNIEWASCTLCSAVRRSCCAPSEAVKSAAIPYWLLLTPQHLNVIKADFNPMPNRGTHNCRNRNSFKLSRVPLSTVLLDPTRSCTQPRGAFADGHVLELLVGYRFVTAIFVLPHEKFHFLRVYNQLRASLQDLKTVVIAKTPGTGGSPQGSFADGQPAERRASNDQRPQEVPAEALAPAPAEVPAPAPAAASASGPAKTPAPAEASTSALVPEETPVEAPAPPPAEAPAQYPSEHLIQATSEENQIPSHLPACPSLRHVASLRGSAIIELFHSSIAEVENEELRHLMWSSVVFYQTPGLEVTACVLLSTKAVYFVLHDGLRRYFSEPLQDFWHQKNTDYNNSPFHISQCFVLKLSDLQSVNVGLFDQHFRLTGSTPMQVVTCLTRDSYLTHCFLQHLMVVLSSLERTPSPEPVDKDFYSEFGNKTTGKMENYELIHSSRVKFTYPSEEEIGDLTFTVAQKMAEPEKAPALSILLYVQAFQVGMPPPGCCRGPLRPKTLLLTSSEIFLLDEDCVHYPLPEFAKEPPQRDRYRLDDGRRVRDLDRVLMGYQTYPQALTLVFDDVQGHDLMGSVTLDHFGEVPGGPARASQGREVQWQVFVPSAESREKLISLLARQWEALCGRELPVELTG

Reference set, count: 5
1. CCOc1cc(OC)c(CC(C)N)cc1OC (stereo unspecified) : > 10 µM
2. COc1cc(CC(C)N)cc(OC)c1OC (stereo unspecified) : > 10 µM
3. NCCc1c2c(c(Br)c3c1OCC3)OCC2 : > 10 µM
4. COc1cc(CCN)c(OC)cc1Br : 2.16 µM
5. COc1cc(CCN)cc(OC)c1OC : 2.68 µM

[in] // map CCN(CC)C(=O)N[C@H]1C=C2c3cccc4[nH]cc(c34)C[C@H]2N(C)C1 [lisuride, (S)] to recorded Ki (system: Nischarin (Homo sapiens))
[out] > 10 µM

----------
Molecular target: D(4) dopamine receptor (Homo sapiens, UniProt P21917)
Sequence (P21917 whole entry): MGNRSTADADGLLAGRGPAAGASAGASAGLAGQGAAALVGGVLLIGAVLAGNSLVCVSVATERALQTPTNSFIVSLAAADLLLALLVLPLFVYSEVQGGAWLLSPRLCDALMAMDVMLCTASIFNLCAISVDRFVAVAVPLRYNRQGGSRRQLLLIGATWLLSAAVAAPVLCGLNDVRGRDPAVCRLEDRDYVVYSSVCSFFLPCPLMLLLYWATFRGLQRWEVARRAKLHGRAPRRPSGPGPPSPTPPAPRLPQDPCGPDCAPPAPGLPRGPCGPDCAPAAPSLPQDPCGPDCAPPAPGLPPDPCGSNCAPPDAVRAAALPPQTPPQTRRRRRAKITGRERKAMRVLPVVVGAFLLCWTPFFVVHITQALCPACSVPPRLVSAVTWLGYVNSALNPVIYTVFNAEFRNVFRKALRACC
pKi: −log10 of the molar value.
Here, each record is paired with measured pKi data.

Reference set, count: 5
1) CCc1cc(OC)c(CCN)cc1OC : < 5.00
2) CCOc1cc(OC)c(CC(C)N)cc1OC (configuration not stated) : < 5.00
3) COc1ccc2[nH]c(C)c(CCN(C)C)c2c1 : < 5.00
4) CCSc1cc(OC)c(CCN)cc1OC [2C-T-2] : < 5.00
5) CC[C@H]1C[C@@H]2C[C@H]3c4[nH]c5ccc(OC)cc5c4CCN(C2)[C@@H]13 : < 5.00

[in] Please look up its pKi: "COC(=O)[C@@H]1C[C@H](OC(C)=O)C(=O)[C@H]2[C@@]1(C)CC[C@H]1C(=O)O[C@H](c3ccoc3)C[C@]21C"
[out] < 5.00

[in] // same read-out, input: CCCN(CCC)CCc1c[nH]c2ccccc12 [dpt]
[out] 5.70

[in] // same read-out, input: COc1cc(CC(C)N)c(OC)cc1C (configuration not stated)
[out] < 5.00

[in] // same read-out, input: CC(N)Cc1ccc2c(c1)OCO2 (configuration not stated)
[out] < 5.00

[in] // same read-out, input: CCc1cc(OC)c(CC(C)N)cc1OC (configuration not stated)
[out] < 5.00

[in] // same read-out, input: COc1ccc2[nH]cc(CCN(C(C)C)C(C)C)c2c1 [5-meo-dipt]
[out] < 5.00

[in] // same read-out, input: COc1ccc2[nH]cc(CCN(C)C)c2c1 [3-(2-DIMETHYLAMINOETHYL)-5-METHOXYINDOLE]
[out] 5.51

----------
UniProt:P20309: reported pKi for various compounds.
Sequence (P20309 whole entry): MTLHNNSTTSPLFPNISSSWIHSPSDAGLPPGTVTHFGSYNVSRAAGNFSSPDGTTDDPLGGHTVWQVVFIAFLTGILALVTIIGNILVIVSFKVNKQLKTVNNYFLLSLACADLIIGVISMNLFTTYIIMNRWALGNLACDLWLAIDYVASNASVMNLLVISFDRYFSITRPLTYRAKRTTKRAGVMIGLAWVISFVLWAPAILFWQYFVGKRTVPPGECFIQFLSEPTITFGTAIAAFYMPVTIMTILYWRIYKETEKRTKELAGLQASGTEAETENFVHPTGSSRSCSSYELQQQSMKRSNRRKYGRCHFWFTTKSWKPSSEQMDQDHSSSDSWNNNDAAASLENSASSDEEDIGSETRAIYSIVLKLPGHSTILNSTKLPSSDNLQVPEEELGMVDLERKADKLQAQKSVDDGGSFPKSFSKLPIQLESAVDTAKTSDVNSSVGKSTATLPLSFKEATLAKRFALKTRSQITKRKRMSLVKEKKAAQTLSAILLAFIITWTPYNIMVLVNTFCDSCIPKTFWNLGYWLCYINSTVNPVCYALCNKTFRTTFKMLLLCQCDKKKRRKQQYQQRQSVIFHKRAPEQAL
To interpret pKi, take it as minus log10 of a concentration measured in moles per litre.

1) COc1cc(CC(C)N)c(OC)cc1Br (centres undefined) : 5.94

[in] Please look up its pKi: "CCc1cc(OC)c(CCN)cc1OC"
[out] 5.59

----------
Molecular target: UniProt P08913
Sequence (P08913 whole entry): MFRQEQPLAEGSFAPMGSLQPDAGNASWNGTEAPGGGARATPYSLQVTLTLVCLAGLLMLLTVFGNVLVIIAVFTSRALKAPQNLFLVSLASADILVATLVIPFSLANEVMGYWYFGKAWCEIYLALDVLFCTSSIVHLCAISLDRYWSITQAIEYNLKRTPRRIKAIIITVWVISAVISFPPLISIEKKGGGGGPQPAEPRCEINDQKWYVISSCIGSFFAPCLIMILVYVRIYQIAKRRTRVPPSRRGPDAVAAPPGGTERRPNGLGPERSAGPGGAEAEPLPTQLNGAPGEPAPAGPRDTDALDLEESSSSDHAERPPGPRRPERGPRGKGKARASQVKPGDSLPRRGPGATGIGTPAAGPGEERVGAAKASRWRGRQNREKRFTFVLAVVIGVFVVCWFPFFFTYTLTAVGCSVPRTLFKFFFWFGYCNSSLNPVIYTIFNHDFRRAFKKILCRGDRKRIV
Here, each record is paired with measured pKi data.
To interpret pKi, take it as minus log10 of a concentration measured in moles per litre.

Reference set, count: 4
1. COc1ccc2[nH]cc(CCN(C)C)c2c1 : 5.72
2. CN(C)CCc1c[nH]c2ccccc12 : 5.81
3. COc1cc(CCN)c(OC)cc1Br : 6.51
4. COc1cc(CC(C)N)c(OC)cc1C (configuration not stated) : 6.24

[in] Please look up its pKi: COc1cc(CC(C)N)c(OC)cc1Br (configuration not stated)
[out] 5.37

[in] // same read-out, input: CCc1cc(OC)c(CC(C)N)cc1OC (configuration not stated)
[out] 5.89

[in] // same read-out, input: "COc1cc(CCN)cc(OC)c1OC"
[out] 5.05

[in] // same read-out, input: COc1cc(CC(C)N)cc(OC)c1OC (configuration not stated)
[out] 5.68

[in] // same read-out, input: CCSc1cc(OC)c(CC(C)N)cc1OC (configuration not stated)
[out] 5.24

[in] // same read-out, input: "CCc1cc(OC)c(CCN)cc1OC"
[out] 6.31
